Below, each of the binders is paired with its reported EC50 hC3 cleavage value.
# ASSAY TARGET: plasma purified human complement protein C3 (human) (UniProt P01024)
# Sequence (P01024 23-667, chain 1 of 2): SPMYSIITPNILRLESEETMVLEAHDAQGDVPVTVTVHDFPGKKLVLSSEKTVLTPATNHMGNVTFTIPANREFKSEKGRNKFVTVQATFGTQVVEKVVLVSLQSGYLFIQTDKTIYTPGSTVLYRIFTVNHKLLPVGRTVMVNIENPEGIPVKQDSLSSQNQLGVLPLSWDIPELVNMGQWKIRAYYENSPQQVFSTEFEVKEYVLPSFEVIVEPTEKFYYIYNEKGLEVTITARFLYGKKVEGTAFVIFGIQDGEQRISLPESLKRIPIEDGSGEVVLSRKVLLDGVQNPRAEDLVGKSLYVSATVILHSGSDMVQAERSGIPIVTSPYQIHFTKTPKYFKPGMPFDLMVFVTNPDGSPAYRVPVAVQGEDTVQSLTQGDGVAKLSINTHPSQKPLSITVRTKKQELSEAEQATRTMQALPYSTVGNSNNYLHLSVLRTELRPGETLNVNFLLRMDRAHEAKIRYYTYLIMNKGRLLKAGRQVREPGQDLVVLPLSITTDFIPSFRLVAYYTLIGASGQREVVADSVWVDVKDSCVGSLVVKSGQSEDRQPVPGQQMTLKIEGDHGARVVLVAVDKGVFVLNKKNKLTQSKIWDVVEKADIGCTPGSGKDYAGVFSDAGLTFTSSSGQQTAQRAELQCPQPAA
# Sequence (P01024 672-1663, chain 2 of 2): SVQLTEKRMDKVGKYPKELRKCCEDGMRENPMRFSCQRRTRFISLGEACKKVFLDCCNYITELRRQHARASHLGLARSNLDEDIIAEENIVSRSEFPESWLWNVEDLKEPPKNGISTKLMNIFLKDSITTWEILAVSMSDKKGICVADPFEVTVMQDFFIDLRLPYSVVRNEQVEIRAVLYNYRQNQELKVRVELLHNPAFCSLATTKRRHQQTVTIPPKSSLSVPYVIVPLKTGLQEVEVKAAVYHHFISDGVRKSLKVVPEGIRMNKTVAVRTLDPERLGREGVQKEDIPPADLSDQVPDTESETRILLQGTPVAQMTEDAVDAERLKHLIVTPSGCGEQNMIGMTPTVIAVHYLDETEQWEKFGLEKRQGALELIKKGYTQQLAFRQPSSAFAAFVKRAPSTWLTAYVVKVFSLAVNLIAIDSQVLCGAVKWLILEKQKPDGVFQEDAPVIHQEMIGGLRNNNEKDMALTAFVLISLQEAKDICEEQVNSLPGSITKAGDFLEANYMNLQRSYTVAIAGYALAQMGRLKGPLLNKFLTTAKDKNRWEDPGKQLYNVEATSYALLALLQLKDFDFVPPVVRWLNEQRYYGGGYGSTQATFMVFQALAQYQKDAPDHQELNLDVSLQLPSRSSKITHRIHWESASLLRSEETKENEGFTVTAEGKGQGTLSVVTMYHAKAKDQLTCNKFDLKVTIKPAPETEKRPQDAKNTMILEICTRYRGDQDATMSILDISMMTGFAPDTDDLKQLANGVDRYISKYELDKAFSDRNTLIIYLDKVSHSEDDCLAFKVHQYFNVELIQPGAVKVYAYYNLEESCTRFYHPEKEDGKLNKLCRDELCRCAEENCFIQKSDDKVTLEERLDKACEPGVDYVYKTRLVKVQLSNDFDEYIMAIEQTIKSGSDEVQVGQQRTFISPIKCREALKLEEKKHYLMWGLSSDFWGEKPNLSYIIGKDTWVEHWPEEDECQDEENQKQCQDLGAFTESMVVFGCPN
# PROTOCOL SUMMARY: cell-based or functional assay
Reply with just the number (in µM).

Look up EC50 hC3 cleavage: MTSP-1 protease domain I41S/D96E/ins97aG/C122S/G151Q/Q192A (enzyme) VVGGTDADEGEWPWQVSLHALGQGHSCGASLISPNWLVSAAHCYIDDRGFRYSDPTQWTAFLGLHDQSQRSAPGVQERRLKRIISHPFFNEFGTFDYDIALLELEKPAEYSSMVRPISLPDASHVFPAGKAIWVTGWGHTQYGGTQALILQKGEIRVINQTTCENLLPQQITPRMMCVGFLSGGVDSCAGDSGGPLSSVEADGRIFQAGVVSWGDGCAQRNKPGVYTRLPLFRDWIKENTGV
0.0444

Please report the recorded EC50 hC3 cleavage for MTSP-1 protease domain Q38Y/I41T/D96M/ins97aS/C122S/G151N (enzyme) VVGGTDADEGEWPWQVSLHALGYGHTCGASLISPNWLVSAAHCYIDDRGFRYSDPTQWTAFLGLHDQSQRSAPGVQERRLKRIISHPFFNMFSTFDYDIALLELEKPAEYSSMVRPISLPDASHVFPAGKAIWVTGWGHTQYGGTNALILQKGEIRVINQTTCENLLPQQITPRMMCVGFLSGGVDSCQGDSGGPLSSVEADGRIFQAGVVSWGDGCAQRNKPGVYTRLPLFRDWIKENTGV .
0.0125

Which EC50 hC3 cleavage value belongs to MTSP-1 protease domain I41A/Y60gW/D96F/F97G/F99M/C122S/Q175W/Q192A (enzyme) VVGGTDADEGEWPWQVSLHALGQGHACGASLISPNWLVSAAHCYIDDRGFRWSDPTQWTAFLGLHDQSQRSAPGVQERRLKRIISHPFFNFGTMDYDIALLELEKPAEYSSMVRPISLPDASHVFPAGKAIWVTGWGHTQYGGTGALILQKGEIRVINQTTCENLLPQWITPRMMCVGFLSGGVDSCAGDSGGPLSSVEADGRIFQAGVVSWGDGCAQRNKPGVYTRLPLFRDWIKENTGV ?
0.00406
